Test: Dissociation constant, pKa of the compound
Type: physicochemical
assay_endpoint: pKa
Answer field: number only, no words.

Input line: Looking for the measured pKa of COc1cccc(CNCCCNc2ccnc3cc(Oc4ccc(F)cc4)ccc23)c1O , can you help?
Output line: 9.28

Input line: Looking for the measured pKa of COc1ccc(F)cc1CNCCCNc1ccnc2cc(-c3cccc4ccccc34)ccc12 , can you help?
Output line: 9.47

###

Experiment: Solubility of the compound at pH 7.4 after 18 hrs by UV spectroscopic analysis
Assay type: physicochemical
Conditions: buffer
Collected solubility at 18 h values appear next to each entry.
Report as a plain number; the unit µM is understood.

Completed entries (count: 4):
| molecule | value_unit | number |
| --- | --- | --- |
| Fc1ccc(-c2ccc3c(NCCCNCc4ccco4)ccnc3c2)cc1 | µM | 32 |
| COc1cccc(Oc2ccc3c(NCCCNCc4cccc(OC)c4O)ccnc3c2)c1 | µM | 14.5 |
| FC(F)(F)c1ccc(-c2ccc3c(NCCCNCc4ccc5c(c4)OCO5)ccnc3c2)cc1 | µM | 32 |
| c1ccc(-c2ccc3c(NCCCNCc4ccc5c(c4)OCO5)ccnc3c2)cc1 | µM | 32 |

Input line: Looking for the measured solubility at 18 h of COc1ccccc1Oc1ccc2c(NCCCNCc3ccco3)ccnc2c1 , can you help?
Output line: 14.5

Input line: Looking for the measured solubility at 18 h of c1coc(CNCCCNc2ccnc3cc(C4CCCCC4)ccc23)c1 , can you help?
Output line: 4.2

Input line: Looking for the measured solubility at 18 h of COc1ccccc1Oc1ccc2c(NCCCNCc3ccc4c(c3)OCO4)ccnc2c1 , can you help?
Output line: 14.5

Input line: Looking for the measured solubility at 18 h of COc1ccc(F)cc1CNCCCNc1ccnc2cc(Cc3ccccc3)ccc12 , can you help?
Output line: 4.2

Input line: Looking for the measured solubility at 18 h of CC(C)Cc1ccc2c(NCCCNCc3ccc4c(c3)OCO4)ccnc2c1 , can you help?
Output line: 4.2

Input line: Looking for the measured solubility at 18 h of COc1ccc(F)cc1CNCCCNc1ccnc2cc(Oc3ccc(Cl)cc3)ccc12 , can you help?
Output line: 14.5

###

Experiment: Ratio of EC50 for human HepG2 cells to EC50 for Plasmodium falciparum 3D7 infected in human erythrocytes
Collected Ratio EC50 values appear next to each entry.
Answer field: number only, no words.

Completed entries (count: 3):
| molecule | Ratio EC50 |
| --- | --- |
| COc1ccccc1Oc1ccc2c(NCCCNCc3ccc4c(c3)OCO4)ccnc2c1 | 427 |
| c1coc(CNCCCNc2ccnc3cc(Cc4ccc5c(c4)OCO5)ccc23)c1 | 340.2 |
| COc1ccc(F)cc1CNCCCNc1ccnc2cc(Oc3ccc(C(C)(C)C)cc3)ccc12 | 68 |

Input line: Looking for the measured Ratio EC50 of c1ccc(CCc2ccc3c(NCCCNCc4ccco4)ccnc3c2)cc1 , can you help?
Output line: 347.8

Input line: Looking for the measured Ratio EC50 of COc1ccc(F)cc1CNCCCNc1ccnc2cc(-c3cccc4ccccc34)ccc12 , can you help?
Output line: 13.9

###

Test: Ratio of EC50 for human HepG2 cells to EC50 for Plasmodium falciparum 3D7 infected in human erythrocytes
assay_endpoint: Ratio EC50
Answer field: number only, no words.

| molecule | number |
| --- | --- |
| COc1ccc(F)cc1CNCCCNc1ccnc2cc(-c3ccc(C(F)(F)F)cc3)ccc12 | 96.8 |
| COc1ccc(F)cc1CNCCCNc1ccnc2cc(CCc3ccccc3)ccc12 | 32.1 |
| COc1ccc(F)cc1CNCCCNc1ccnc2cc(Cc3ccc(F)cc3)ccc12 | 47.1 |

Input line: Looking for the measured Ratio EC50 of COc1cccc(CNCCCNc2ccnc3cc(Cc4ccc(F)cc4Cl)ccc23)c1O , can you help?
Output line: 185.4

Input line: Looking for the measured Ratio EC50 of c1ccc(Oc2ccc3c(NCCCNCc4ccc5c(c4)OCO5)ccnc3c2)cc1 , can you help?
Output line: 149

Input line: Looking for the measured Ratio EC50 of COc1cccc(CNCCCNc2ccnc3cc(CCc4ccccc4)ccc23)c1O , can you help?
Output line: 400

Input line: Looking for the measured Ratio EC50 of CC(C)(C)c1ccc(Oc2ccc3c(NCCCNCc4ccco4)ccnc3c2)cc1 , can you help?
Output line: 3

Input line: Looking for the measured Ratio EC50 of COc1cccc(CNCCCNc2ccnc3cc(-c4ccccc4)ccc23)c1O , can you help?
Output line: 353

Input line: Looking for the measured Ratio EC50 of Fc1ccc(Cc2ccc3c(NCCCNCc4ccco4)ccnc3c2)c(Cl)c1 , can you help?
Output line: 290.8

Input line: Looking for the measured Ratio EC50 of COc1cccc(CNCCCNc2ccnc3cc(Cc4cc(C)cc(C)c4)ccc23)c1O , can you help?
Output line: 315.8

###

Experiment: Solubility of the compound at pH 7.4 after 18 hrs by UV spectroscopic analysis
Type: physicochemical
Conditions: buffer
assay_endpoint: solubility at 18 h (µM)
Report as a plain number; the unit µM is understood.

| molecule | assay_endpoint | number |
| --- | --- | --- |
| COc1cccc(CNCCCNc2ccnc3cc(Cc4ccc(F)cc4)ccc23)c1O | solubility at 18 h | 4.2 |
| COc1ccc(-c2ccc3c(NCCCNCc4ccc5c(c4)OCO5)ccnc3c2)cc1 | solubility at 18 h | 32 |
| FC(F)(F)c1cccc(Cc2ccc3c(NCCCNCc4ccco4)ccnc3c2)c1 | solubility at 18 h | 4.2 |

Input line: Looking for the measured solubility at 18 h of COc1cccc(CNCCCNc2ccnc3cc(-c4ccc(C(F)(F)F)cc4)ccc23)c1O , can you help?
Output line: 32

Input line: Looking for the measured solubility at 18 h of COc1ccc(F)cc1CNCCCNc1ccnc2cc(Cc3cc(C)cc(C)c3)ccc12 , can you help?
Output line: 4.2

###

Assay: Permeability of the compound at pH 7.4 after 30 mins by PAMPA
Type: ADME
Conditions: read-out: permeability
assay_endpoint: Papp at 0.5 h (×10⁻⁶ cm/s)
Report as a plain number; the unit ×10⁻⁶ cm/s is understood.

Completed entries (count: 6):
| molecule | value_unit | Papp at 0.5 h |
| --- | --- | --- |
| COc1ccc(F)cc1CNCCCNc1ccnc2cc(-c3cc(C(F)(F)F)cc(C(F)(F)F)c3)ccc12 | ×10⁻⁶ cm/s | 237 |
| Cc1cc(C)cc(Cc2ccc3c(NCCCNCc4ccco4)ccnc3c2)c1 | ×10⁻⁶ cm/s | 23 |
| CN(C)c1cccc(Oc2ccc3c(NCCCNCc4ccco4)ccnc3c2)c1 | ×10⁻⁶ cm/s | 317 |
| COc1ccc(F)cc1CNCCCNc1ccnc2cc(CCC(C)C)ccc12 | ×10⁻⁶ cm/s | 23 |
| c1coc(CNCCCNc2ccnc3cc(-c4cccc5ccccc45)ccc23)c1 | ×10⁻⁶ cm/s | 237 |
| COc1ccc(F)cc1CNCCCNc1ccnc2cc(Cc3ccc(F)cc3Cl)ccc12 | ×10⁻⁶ cm/s | 23 |

Input line: Looking for the measured Papp at 0.5 h of FC(F)(F)c1cc(-c2ccc3c(NCCCNCc4ccco4)ccnc3c2)cc(C(F)(F)F)c1 , can you help?
Output line: 237

Input line: Looking for the measured Papp at 0.5 h of COc1cccc(CNCCCNc2ccnc3cc(Cc4cccc(C(F)(F)F)c4)ccc23)c1O , can you help?
Output line: 23

Input line: Looking for the measured Papp at 0.5 h of COc1cccc(CNCCCNc2ccnc3cc(CCc4ccccc4)ccc23)c1O , can you help?
Output line: 23

Input line: Looking for the measured Papp at 0.5 h of CC(C)(C)c1ccc(Oc2ccc3c(NCCCNCc4ccco4)ccnc3c2)cc1 , can you help?
Output line: 317

###

Collected Ratio EC50 values appear next to each entry.
Assay: Ratio of EC50 for human HepG2 cells to EC50 for Plasmodium falciparum 3D7 infected in human erythrocytes
Answer field: number only, no words.

Input line: Looking for the measured Ratio EC50 of CC(C)Cc1ccc2c(NCCCNCc3ccc4c(c3)OCO4)ccnc2c1 , can you help?
Output line: 36.3

Input line: Looking for the measured Ratio EC50 of COc1ccccc1Oc1ccc2c(NCCCNCc3cccc(OC)c3O)ccnc2c1 , can you help?
Output line: 1227

Input line: Looking for the measured Ratio EC50 of CCC(CC)c1ccc2c(NCCCNCc3ccc4c(c3)OCO4)ccnc2c1 , can you help?
Output line: 235.1

Input line: Looking for the measured Ratio EC50 of COc1cccc(CNCCCNc2ccnc3cc(-c4ccc(F)cc4)ccc23)c1O , can you help?
Output line: 742.9

Input line: Looking for the measured Ratio EC50 of COc1ccc(Oc2ccc3c(NCCCNCc4cc(F)ccc4OC)ccnc3c2)cc1 , can you help?
Output line: 129

Input line: Looking for the measured Ratio EC50 of COc1ccc(-c2ccc3c(NCCCNCc4ccc5c(c4)OCO5)ccnc3c2)cc1 , can you help?
Output line: 192.9

Input line: Looking for the measured Ratio EC50 of COc1cccc(CNCCCNc2ccnc3cc(Cc4cccc(C(F)(F)F)c4)ccc23)c1O , can you help?
Output line: 69

Input line: Looking for the measured Ratio EC50 of COc1ccc(Oc2ccc3c(NCCCNCc4ccco4)ccnc3c2)cc1 , can you help?
Output line: 1479
